Measured cytotoxicity at 10 µM of individual entries
Assay notes: Toxicity liver stage against HepG2, at 10uM
Format: cell-based
Design: test concentration 10 uM, cell line HepG2-A16-CD81EGFP
Conditions: human, HepG2-A16-CD81EGFP cells; read-out: INHIBITION
Measurement type: cytotoxicity at 10 µM (%)

- Molecule: "CCC(C)(C)NC(=O)C1CC(=O)N(CC2CC2)C1 (stereo not given)"
  Measurement type: "cytotoxicity at 10 µM"
  Meas value: -4.72
- Molecule: "O=C1CC(N2CCN(c3ccccc3O)CC2)C(=O)N1Cc1cccs1 (stereo not given)"
  Measurement type: "cytotoxicity at 10 µM"
  Meas value: -0.872
- Molecule: "CC[C@H](C)Nc1ncc(-c2ccn(C3CCN(C(C)=O)CC3)n2)cn1"
  Measurement type: "cytotoxicity at 10 µM"
  Meas value: -9.22
- Molecule: "COCCN1CCN(c2cccc(C)n2)Cc2ccc(C)nc21"
  Measurement type: "cytotoxicity at 10 µM"
  Meas value: -106
- Molecule: "Cn1nccc1C(=O)N1CCOC(Cc2cccc(C(F)(F)F)c2)C1 (stereo not given)"
  Measurement type: "cytotoxicity at 10 µM"
  Meas value: 5.52
- Molecule: "CN1CCN(C(=O)c2n[nH]c3c2CN(C2CCOC2)CC3)CC1 (stereo not given)"
  Measurement type: "cytotoxicity at 10 µM"
  Meas value: 1.52
- Molecule: "CCS(=O)(=O)c1cccc(C(=O)Nc2cccc3c2C(=O)N(C)C3=O)c1"
  Measurement type: "cytotoxicity at 10 µM"
  Meas value: -139
- Molecule: "CCc1ccccc1NC(=O)c1cnn(C)c1C"
  Measurement type: "cytotoxicity at 10 µM"
  Meas value: -2.52
- Molecule: "COc1cccc(-c2nc3c([nH]2)CC(C)(C)CNC3=O)c1OC"
  Measurement type: "cytotoxicity at 10 µM"
  Meas value: -5.82
- Molecule: "Cn1ccnc1-c1cccc(NC(=O)NCCCN2CCOCC2)c1"
  Measurement type: "cytotoxicity at 10 µM"
  Meas value: -5.01
- Molecule: "COc1cc(CN2CCCC2c2cccc(F)c2)cc(OC)c1OC (stereo not given)"
  Measurement type: "cytotoxicity at 10 µM"
  Meas value: -2.03
- Molecule: "Cc1ccc(N2N=C(C(=O)NCC3CC3)S(=O)(=O)c3cccnc32)cc1"
  Measurement type: "cytotoxicity at 10 µM"
  Meas value: 6.72
- Molecule: "Cn1nccc1NC(=O)c1cccc(CN2C[C@H]3CC[C@@H](C2)N3)c1"
  Measurement type: "cytotoxicity at 10 µM"
  Meas value: 6.56
- Molecule: "COc1ccccc1[C@@H]1CN(Cc2ccncc2)C[C@H]1C(=O)O"
  Measurement type: "cytotoxicity at 10 µM"
  Meas value: -4.23
- Molecule: "CC(c1nc(C2CC2)no1)N1CCN(Cc2nnc(C3CC3)o2)CC1 (stereo not given)"
  Measurement type: "cytotoxicity at 10 µM"
  Meas value: 7.7
- Molecule: "COc1cccc(CN(C)C(=O)CN2CCN(c3nccs3)CC2)c1"
  Measurement type: "cytotoxicity at 10 µM"
  Meas value: -3.98
- Molecule: "Cc1c(C(C)NC(=O)Nc2ccc(F)c(F)c2)cnn1C (stereo not given)"
  Measurement type: "cytotoxicity at 10 µM"
  Meas value: -46.8
- Molecule: "CC(O)CNCc1c[nH]nc1-c1cc2ccccc2o1 (stereo not given)"
  Measurement type: "cytotoxicity at 10 µM"
  Meas value: 0.788
- Molecule: "CC(C)N1CCN(c2ccc3ccc(C(=O)NC4CCCC4)cn23)CC1"
  Measurement type: "cytotoxicity at 10 µM"
  Meas value: 1.26
- Molecule: "Cc1nc(NCCc2ccc(Cl)cc2)cc(C(=O)N2CCOCC2)n1"
  Measurement type: "cytotoxicity at 10 µM"
  Meas value: -4.78
- Molecule: "Cn1ccc(CS(=O)(=O)Cc2cccc(F)c2)cc1=O"
  Measurement type: "cytotoxicity at 10 µM"
  Meas value: 6.83
- Molecule: "COCC1N(C(=O)c2ccc3c(c2)OCCCO3)C2CCC1(O)CC2 (stereo not given)"
  Measurement type: "cytotoxicity at 10 µM"
  Meas value: -5.3
- Molecule: "c1ccc(CN2CCN3C[C@H](Oc4cccnc4)C[C@H]3C2)nc1"
  Measurement type: "cytotoxicity at 10 µM"
  Meas value: 6.59
- Molecule: "O=C(NCCC1COc2ccccc2O1)c1ccc(-c2cc[nH]n2)nc1 (stereo not given)"
  Measurement type: "cytotoxicity at 10 µM"
  Meas value: -6.84
- Molecule: "Cc1nc(NC2CCN(S(=O)(=O)c3ccccc3)CC2)[nH]c(=O)c1C"
  Measurement type: "cytotoxicity at 10 µM"
  Meas value: -3.45
- Molecule: "Cc1noc(C2CN(S(C)(=O)=O)Cc3ccnn3C2)n1 (stereo not given)"
  Measurement type: "cytotoxicity at 10 µM"
  Meas value: 4.92
- Molecule: "COCCn1cc(CC(=O)Nc2nc[nH]n2)c2ccccc21"
  Measurement type: "cytotoxicity at 10 µM"
  Meas value: -0.145
- Molecule: "COc1cccc(CC(=O)N2CCN(C)c3ncccc3C2)c1"
  Measurement type: "cytotoxicity at 10 µM"
  Meas value: 2.33
- Molecule: "O=C(c1ccccc1)N1CCO[C@@H]2CN(c3ncccn3)C[C@@H]2C1"
  Measurement type: "cytotoxicity at 10 µM"
  Meas value: -6.63
- Molecule: "c1ccc2oc(CN3CCCCC3Cn3cncn3)nc2c1 (stereo not given)"
  Measurement type: "cytotoxicity at 10 µM"
  Meas value: -13.9
- Molecule: "Cc1ccc(CN2CCN(Cc3cc(C)n[nH]3)CC2CCO)cc1 (stereo not given)"
  Measurement type: "cytotoxicity at 10 µM"
  Meas value: 1.13
- Molecule: "O=C(NCCNC(=O)c1scnc1Cl)c1ccccc1Cl"
  Measurement type: "cytotoxicity at 10 µM"
  Meas value: -0.524
- Molecule: "Cc1nc(CN2CCCN(C(=O)CC(C)n3cccc3)CC2)cs1 (stereo not given)"
  Measurement type: "cytotoxicity at 10 µM"
  Meas value: -6.25
- Molecule: "Cc1cc(C(=O)Nc2ccc(OCC3CCOCC3)cc2)[nH]n1"
  Measurement type: "cytotoxicity at 10 µM"
  Meas value: -7.04
- Molecule: "CCN(Cc1nc(-c2ccco2)no1)Cc1cccc2c1OCO2"
  Measurement type: "cytotoxicity at 10 µM"
  Meas value: 8.33
- Molecule: "CC(O)c1cn(Cc2ccccc2)nn1 (stereo not given)"
  Measurement type: "cytotoxicity at 10 µM"
  Meas value: 7.62
- Molecule: "CCCc1nnc(N2CCN(C3CCCC3)CC2)o1"
  Measurement type: "cytotoxicity at 10 µM"
  Meas value: -13.8
- Molecule: "CCn1cc(NC(=O)C(C)n2ncc(Cl)c2C)c(C(=O)NCC(C)C)n1 (stereo not given)"
  Measurement type: "cytotoxicity at 10 µM"
  Meas value: 0.557
- Molecule: "CNCC(=O)N1CCCC1c1nc(C(C)C)no1 (stereo not given)"
  Measurement type: "cytotoxicity at 10 µM"
  Meas value: 0.983
- Molecule: "COc1cc(CCC(=O)NC2CC2)ccc1OCC(F)(F)F"
  Measurement type: "cytotoxicity at 10 µM"
  Meas value: -8.35
